B1: library; numbered along this chain (parent)
chain: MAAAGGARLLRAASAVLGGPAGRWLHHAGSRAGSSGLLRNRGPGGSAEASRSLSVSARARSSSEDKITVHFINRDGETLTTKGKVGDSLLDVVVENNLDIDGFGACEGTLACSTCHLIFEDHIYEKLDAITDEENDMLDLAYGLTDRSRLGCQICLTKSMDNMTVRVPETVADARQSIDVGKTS

Variants of: B1
Assay: scaled log2 fold change in cell abundance, elesclomol vs control (0 = silent mean, 1 = nonsense mean) (scaled log2 ratio); higher = higher viability under elesclomol (loss of FDX1 cuproptosis function);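 further: variant abundance is its share of total variant reads in each endpoint sample, from next-generation sequencing of the integrated ORF PCR-amplified out of genomic DNA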
Conditions: with ABC1 FDX1 KO; elesclomol 5 nM; glucose 10 mM; 14 days
Decide using scaled log2 fold change: a value greater than or equal to -0.02 is yes, a smaller one is no.

I123Q :: no

QUERY: Exam item: decide whether the reported scaled log2 fold change for A105K is at least -0.02.
RESULT: yes

QUERY: Exam item: decide whether the reported scaled log2 fold change for K182D is at least -0.02.
RESULT: yes

QUERY: Exam item: decide whether the reported scaled log2 fold change for N97T is at least -0.02.
RESULT: no

QUERY: Exam item: decide whether the reported scaled log2 fold change for S63W is at least -0.02.
RESULT: yes

QUERY: Exam item: decide whether the reported scaled log2 fold change for R149H is at least -0.02.
RESULT: yes

QUERY: Exam item: decide whether the reported scaled log2 fold change for A57D is at least -0.02.
RESULT: yes

QUERY: Exam item: decide whether the reported scaled log2 fold change for I72E is at least -0.02.
RESULT: no

QUERY: Exam item: decide whether the reported scaled log2 fold change for I178D is at least -0.02.
RESULT: yes

QUERY: Exam item: decide whether the reported scaled log2 fold change for S56N is at least -0.02.
RESULT: yes

QUERY: Exam item: decide whether the reported scaled log2 fold change for D139E is at least -0.02.
RESULT: yes

QUERY: Exam item: decide whether the reported scaled log2 fold change for K66N is at least -0.02.
RESULT: no

QUERY: Exam item: decide whether the reported scaled log2 fold change for D101A is at least -0.02.
RESULT: no

QUERY: Exam item: decide whether the reported scaled log2 fold change for A15M is at least -0.02.
RESULT: no

QUERY: Exam item: decide whether the reported scaled log2 fold change for T78C is at least -0.02.
RESULT: no

QUERY: Exam item: decide whether the reported scaled log2 fold change for H27G is at least -0.02.
RESULT: yes

QUERY: Exam item: decide whether the reported scaled log2 fold change for G181Q is at least -0.02.
RESULT: no

QUERY: Exam item: decide whether the reported scaled log2 fold change for L156Y is at least -0.02.
RESULT: yes
